- ASSAY_SYSTEM: Calmodulin-1 (Homo sapiens) (UniProt P0DP23)
- METHOD: calcium-bound CALM1 binders on microarrays, profiling panel, artefact control for SMM control-protein annotation, biochemical, small-molecule microarray, Cy5-labelled CALM1, plus calcium (AID 1112);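 note: score merges spot fluorescence with signal to noise from triplicate slides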
- CONDITION_PARAMETERS: Cy5-CALM1 binding fluorescence, higher = more signal
# composite z-score values compiled below
Could you respond with only the numeric value?

1. COc1ccc(C(O)C2C=CC3C(=O)N(c4ccccc4)C(=O)C3N2Nc2ccc(C#N)cc2)c2ccccc12 (stereo unspecified) :: 1.07
2. COC(=O)[C@@]1(Cc2ccc(OC)cc2)[C@H]2c3cc(C(=O)N4CCCC4)n(CCc4cc5ccccc5[nH]4)c3C[C@H]2CN1C(=O)c1ccccc1 :: 0.913
3. CC(C)(C)OC(=O)CC[C@]1(C(=O)O)N=C(c2ccc(OCCCO)cc2)O[C@H]1c1ccccc1CN=[N+]=[N-] :: 0.81
4. COc1cc(CO)cc(I)c1O[C@H]1C=C(C(=O)NCCO)C[C@@H](N(CC2CCCCC2)C(=O)c2ccc(C(F)(F)F)cc2)[C@@H]1O :: -0.21

Let's switch to this molecule now.
Query string: Looking for the measured composite z-score of CC(C)OC(=O)CC(=O)CC(O)c1cccc(C#N)c1 (stereo unspecified) , can you help?
Result string: 0.252

====

- Tested on: Lefty1
- METHOD: Lefty1 binders on small-molecule microarrays, primary screen, biochemical, small-molecule microarray, 635/667 nm fluorescence (AID 1139)
- CONDITION_PARAMETERS: small-molecule microarray binding, fluorescence 635/667; higher = more signal
MEASURED_QUANTITY: composite z-score
Could you respond with only the numeric value?

Below, 5 compounds whose answers are already recorded.
1) C=CCC(OC(C)=O)[C@@H]1[C@@H](N(Cc2cc3ccccc3o2)C(=O)Cc2ccc(F)cc2)c2cc(OCCCO)ccc2N1C(=O)c1ccc2ccccc2n1 (stereo not given in full) :: -0.189
2) CN1C2C=C(CCCO)C(C3C(=O)N(C(N)=O)C(=O)C32)C1c1cccs1 (stereo not given) :: 0.38
3) COc1ccc([Si](C)(C)[C@H]2[C@H](CCO)O[C@@]3(C(=O)N(Cc4cccc(N5CCCCC5=O)c4)c4ccccc43)[C@@H]2C)cc1 :: 1.06
4) C=CC[C@@H](OC(=O)Nc1ccc(OC)cc1)c1ccc(OCCO)cc1 :: -0.999
5) COC(=O)C[C@H]1O[C@]2(C(=O)N(C)c3ccccc32)[C@@H](C)[C@@H]1[Si](C)(C)c1ccc(C)cc1 :: 0.818

Query string: Looking for the measured composite z-score of CC=CC(O)C1C=CC2C(=O)N(c3ccccc3)C(=O)C2N1Nc1ccc([N+](=O)[O-])cc1 (stereo not given) , can you help?
Result string: 0.112

Query string: Another: "C=CCNC(=O)[C@H]1[C@@H]2C(=O)O[C@@H](c3ccccc3)[C@@H](c3ccccc3)N2[C@@H](c2ccccc2OCCO)[C@]12C(=O)N(C(=O)OCCOC)c1ccc(C#CC3=CCCCC3)cc12"
Result string: 0.885

Query string: Another: "CCCCC(=C=CC[C@@H](O)c1ccc(OCCO)cc1)C[C@@H](O)COCc1ccccc1"
Result string: 0.973

====

- Test system: Human papillomavirus type 1a protein E7 (residues 44-93)
- METHOD: HPV1a E7 fragment binders on microarrays, primary screen, biochemical, small-molecule microarray, residues 44-93, 635 nm fluorescence (AID 1108);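 note: E7 fragment applied at 1 µg/mL in TBST for 1 h at 4 C; score combines spot fluorescence with its signal to noise ratio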
- CONDITION_PARAMETERS: small-molecule microarray binding, fluorescence 635 nm; higher = more signal
Cut-off 1 on composite z-score, inclusive. At or above means label 1; below means label 0.

1) COC(=O)[C@]1(CCS(=O)(=O)c2ccccc2)N=C(c2ccc(OCCCO)cc2)O[C@@H]1c1ccccc1CN=[N+]=[N-] :: label 1

Query string: Kindly determine if composite z-score recorded for "COc1cc(CO)cc(I)c1O[C@H]1C=C(C(=O)NCCO)C[C@@H](NCc2ccccc2F)[C@@H]1O" is above or exactly 1.
Result string: label 0

Query string: Another: COc1ccc(NN2C(C(O)c3ccco3)C=CC3C(=O)N(C4CCCCC4)C(=O)C32)cc1 (configuration not stated)
Result string: label 1

Query string: Another: "Cc1c(NC(=O)/C(C#N)=C/C=C/c2ccccc2[N+](=O)[O-])c(=O)n(-c2ccccc2)n1C"
Result string: label 0

Query string: Another: "COCCCNC(=O)[C@]1(CCC(=O)OC(C)(C)C)N=C(c2ccc(OCCCO)cc2)O[C@@H]1c1ccccc1"
Result string: label 1

Query string: Another: "CC(C)(C)OC(=O)CC[C@@]1(C(=O)O)N=C(c2ccc(OCCCO)cc2)O[C@@H]1c1ccccc1"
Result string: label 1

Query string: Another: "C=CCNC(=O)[C@H]1[C@@H]2C(=O)O[C@@H](c3ccccc3)[C@@H](c3ccccc3)N2[C@@H](c2ccccc2OCCO)[C@]12C(=O)N(C(=O)OCCOC)c1ccc(C#CC3=CCCCC3)cc12"
Result string: label 1
